Values compiled from patent US12435080B2.

Target: sGC enzyme (Homo sapiens, UniProt Q02108+Q02153)
Construct: incorporated into these cells detect cGMP formed by the compounds stimulating the sGC enzyme; host or cells: HEK293 cells stably expressing GloSensor 40F cGMP biosensor
Sequence (Q02153 whole entry): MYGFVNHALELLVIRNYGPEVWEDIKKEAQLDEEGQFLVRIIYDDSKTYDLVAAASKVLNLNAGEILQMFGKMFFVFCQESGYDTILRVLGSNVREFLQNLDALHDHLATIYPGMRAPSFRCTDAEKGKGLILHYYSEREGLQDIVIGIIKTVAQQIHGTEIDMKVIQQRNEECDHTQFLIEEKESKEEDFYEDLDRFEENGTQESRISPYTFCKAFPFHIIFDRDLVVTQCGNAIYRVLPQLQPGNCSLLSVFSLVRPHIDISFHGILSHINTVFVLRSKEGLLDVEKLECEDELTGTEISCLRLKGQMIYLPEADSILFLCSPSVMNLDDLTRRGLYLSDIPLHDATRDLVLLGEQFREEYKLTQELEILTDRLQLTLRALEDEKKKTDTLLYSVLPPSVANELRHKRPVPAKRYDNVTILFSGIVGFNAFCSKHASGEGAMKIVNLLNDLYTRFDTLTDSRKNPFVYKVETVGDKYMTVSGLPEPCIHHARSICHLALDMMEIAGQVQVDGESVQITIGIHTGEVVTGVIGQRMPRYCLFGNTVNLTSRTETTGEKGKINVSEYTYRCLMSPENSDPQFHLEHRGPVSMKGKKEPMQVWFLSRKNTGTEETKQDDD
Sequence (Q02108 whole entry): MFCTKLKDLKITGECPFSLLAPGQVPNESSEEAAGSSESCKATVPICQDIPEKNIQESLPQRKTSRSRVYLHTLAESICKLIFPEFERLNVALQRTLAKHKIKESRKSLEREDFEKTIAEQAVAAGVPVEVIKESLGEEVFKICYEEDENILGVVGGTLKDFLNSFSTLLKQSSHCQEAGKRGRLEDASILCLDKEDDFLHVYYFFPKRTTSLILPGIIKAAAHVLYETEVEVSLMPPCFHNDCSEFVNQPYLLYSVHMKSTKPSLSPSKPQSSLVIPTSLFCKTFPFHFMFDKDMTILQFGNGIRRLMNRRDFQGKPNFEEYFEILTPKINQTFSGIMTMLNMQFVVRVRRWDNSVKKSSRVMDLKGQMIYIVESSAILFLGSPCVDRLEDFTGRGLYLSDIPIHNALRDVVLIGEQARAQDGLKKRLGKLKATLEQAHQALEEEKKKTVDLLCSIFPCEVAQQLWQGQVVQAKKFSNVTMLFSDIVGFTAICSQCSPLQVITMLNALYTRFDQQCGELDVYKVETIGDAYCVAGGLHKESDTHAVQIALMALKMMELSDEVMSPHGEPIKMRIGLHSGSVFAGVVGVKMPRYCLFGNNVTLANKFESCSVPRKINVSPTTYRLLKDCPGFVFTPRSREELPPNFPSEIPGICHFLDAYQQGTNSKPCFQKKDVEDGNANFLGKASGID
Assay: cGMP GloSensor cell-based assay, 384-well format
Conditions: HEK293 cells expressing GloSensor 40F cGMP; 10 μM DETA-NONOate; normalized to 30 μM Compound Y; compounds in Table IB; read-out: Glo-sensor Abs EC50
pEC50: −log10 of the molar value.
Please respond with reported pEC50 for every item in the list.

These solved cases illustrate the format of a correct answer.
> print(dat)
                                   molecule  experimental.result
1  Cc1ncc(Cc2nc(-c3nc(C(F)(F)F)n[nH]3)n3ccc(Cl)cc23)cn1 [Compound I-29]         6.00 to 7.00
2  Fc1cccn2c(-c3nc(C(F)(F)F)n[nH]3)nc(Cc3cncnc3)c12 [Compound I-15]               > 7.00
3  Cc1ncc(Cc2nc(-c3nc(C(F)(F)F)n[nH]3)n3cc(Cl)cc(F)c23)cn1 [Compound I-27]               < 6.00

Data request, read-out pEC50, for FC(F)(F)c1n[nH]c(-c2nc(CCC(F)(F)C(F)(F)F)n3ncccc23)n1 [Compound I-18]
6.00 to 7.00

====

Please respond with reported pEC50 for every item in the list.
Target: sGC enzyme (Homo sapiens, UniProt Q02108+Q02153)
Construct: incorporated into these cells detect cGMP formed by the compounds stimulating the sGC enzyme; host or cells: HEK293 cells stably expressing GloSensor 40F cGMP biosensor
Test: cGMP GloSensor cell-based assay, 384-well format
Conditions: HEK293 cells expressing GloSensor 40F cGMP; 10 μM DETA-NONOate; normalized to 30 μM Compound Y; compounds in Table IA; read-out: Glo-sensor AbsEC50
pEC50: −log10 of the molar value.

These solved cases illustrate the format of a correct answer.
> print(dat)
                                   molecule  experimental.result
1  Fc1cccc(Cn2nc(-c3nc(C(F)(F)F)n[nH]3)c3cccnc32)c1               > 7.00
2  Fc1ccccc1Cn1nc(-c2nc(C(F)(F)F)n[nH]2)c2ccncc21         6.00 to 7.00
3  Fc1cccc(F)c1Cn1nc(-c2nc(C(F)(F)F)n[nH]2)c2cccnc21               > 7.00
4  O=C(CC(F)(F)F)Nc1n[nH]c(-c2nn(Cc3ccccc3F)c3ncccc23)n1               < 6.00
5  CC(O)c1n[nH]c(-c2nn(Cc3ccccc3F)c3ncccc23)n1 (stereo not drawn)               > 7.00
6  Fc1cccnc1Cn1nc(-c2nc(C(F)(F)F)n[nH]2)c2cccnc21         6.00 to 7.00

Quick request: pEC50 for each listed item, please.
1. Fc1cc(F)cc(Cc2nn(-c3nc(C(F)F)n[nH]3)c3cccnc23)c1
2. FC(F)(F)c1n[nH]c(-c2nn(CCC(F)(F)C(F)(F)F)c3ncccc23)n1
3. Fc1ccccc1Cn1nc(-c2nc(C(F)(F)F)n[nH]2)c2ccnnc21
4. Fc1ccccc1Cn1nc(-c2nc(N3CC(F)(F)C3)n[nH]2)c2cccnc21
5. Fc1cc(F)cc(Cc2nn(-c3nc(C(F)(F)F)n[nH]3)c3cccnc23)c1

1. 6.00 to 7.00
2. 6.00 to 7.00
3. 6.00 to 7.00
4. < 6.00
5. 6.00 to 7.00
